Assay: endothelial E-selectin expression blockers – imaging, HUVEC, immunofluorescence, MLSMR starter and 10KST1 sets, primary screen (AID 487);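 also: signal is fraction of cell area covered by stained E-selectin grains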
Settings: HUVEC TNFalpha-induced E-selectin immunofluorescence imaging, at 2 µM; stronger effect = higher value
assay.endpoint: inhibition (%)
Answers are plain numbers, in %.

Observe how each entry below is paired with its result.
compound	unit.name	result.value
c1ccn2c(SCc3ccc4c(c3)OCCO4)nnc2c1	%	-56.4
CCC(C)(C)n1nnnc1C(c1ccc(OC)c(OC)c1)N1CCN(c2ccc(F)cc2)CC1 (stereo unspecified)	%	10.4
Cc1ccc(NC(=O)c2ccco2)c(NC(=O)c2cccs2)c1	%	-119

Below are some compounds; for each one, tell me its inhibition.
1. CC1(C)CC(=O)CC(=Nc2ccc(C(=O)O)cc2)C1
2. COc1ccc(C2c3sc(=O)[nH]c3SC3C4CCC(C4)C23)cc1 (stereo unspecified)
3. CC(NC(=O)COc1ccccc1)C(=O)NC1=NCCS1 (stereo unspecified)
4. COc1ccc(-n2c(SCC(=O)N3CCCCC3C)nnc2-c2cccnc2)cc1 (stereo unspecified)

1: 2.7; 2: -69.5; 3: -85.5; 4: -23.2

Below are some compounds; for each one, tell me its inhibition.
1. COc1ccc(C(=O)Nc2ccc(S(=O)(=O)NC(C)=O)cc2)cc1
2. CCN(CC)c1ccc2cc(-c3nc4ccccc4[nH]3)c(=O)oc2c1
3. COc1cc(NC2=CC(=O)CC(C)(C)C2)cc(OC)c1
4. O=C1c2ccccc2C(=O)N1C/C=C/c1ccccc1

9.3
-74.3
-3.1
-3.5

The measured values listed here are drawn from PubChem BioAssay.
